Sourced from patent US4382089A

Test system: E. Coli Brig
Experiment: Antibacterial activity in vitro, Minimal Inhibitory Concentration
Assay type: cell-based
measured parameter: Minimal Inhibitory Concentration (µg/mL)
Write the answer as a number in µg/mL, unit excluded.

> print(dat)
                                   compound  measurement
1  CC(=O)NC(C)C(=O)Nc1ccc2c(=O)c(C(=O)NC(C(=O)NC3C(=O)N4C3SC(C)(C)C4C(=O)O)c3ccc(O)cc3)c[nH]c2c1 (stereo not drawn)          3.1
2  CC(=O)N1CCCC1C(=O)Nc1ccc2[nH]cc(C(=O)NC(C(=O)NC3C(=O)N4C3SC(C)(C)C4C(=O)O)c3ccc(O)cc3)c(=O)c2c1 (stereo not drawn)          6.3
3  CC(=O)N1CC(O)CC1C(=O)Nc1ccc2[nH]c(=O)c(C(=O)NC(C(=O)NC3C(=O)N4C3SC(C)(C)C4C(=O)O)c3ccc(O)cc3)cc2c1 (stereo not drawn)         12.5
4  CC1(C)SC2C(NC(=O)C(NC(=O)c3c[nH]c4ccc(NC(=O)C5CCC(=O)N5)cc4c3=O)c3ccc(O)cc3)C(=O)N2C1C(=O)O (stereo not drawn)          6.3
5  CC(=O)NC(C)C(=O)Nc1ccc2[nH]c(=O)c(C(=O)NC(C(=O)NC3C(=O)N4C3SC(C)(C)C4C(=O)O)c3ccc(O)cc3)cc2c1 (stereo not drawn)          6.3

Known value: E. Coli Brig Minimal Inhibitory Concentration of the compound CC(=O)NC(C)C(=O)Nc1ccc2[nH]cc(C(=O)NC(C(=O)NC3C(=O)N4C3SC(C)(C)C4C(=O)O)c3ccc(O)cc3)c(=O)c2c1 (stereo not drawn) equals 3.1

###

Tested on: E. Coli Vogel
Experiment: Antibacterial activity in vitro, Minimal Inhibitory Concentration
Format: cell-based
Kindly apply the following: True if Minimal Inhibitory Concentration is less than 3 µg/mL, False in every other case.

Examples with answers:
> print(dat)
                                   compound  class
1  CC(=O)N1CC(O)CC1C(=O)Nc1ccc2c(=O)c(C(=O)NC(C(=O)NC3C(=O)N4C3SC(C)(C)C4C(=O)O)c3ccc(O)cc3)c[nH]c2c1 (stereo not drawn)  False
2  CC(=O)N1CC(O)CC1C(=O)Nc1ccc2[nH]c(=O)c(C(=O)NC(C(=O)NC3C(=O)N4C3SC(C)(C)C4C(=O)O)c3ccc(O)cc3)cc2c1 (stereo not drawn)  False

Please check: Minimal Inhibitory Concentration for CC1(C)SC2C(NC(=O)C(NC(=O)c3c[nH]c4ccc(NC(=O)C5CCC(=O)N5)cc4c3=O)c3ccc(O)cc3)C(=O)N2C1C(=O)O (stereo not drawn) , strictly under 3 µg/mL or not?
True

###

Items are presented alongside their recorded Minimal Inhibitory Concentration.
Tested on: Entero C. IMM-11
Experiment: Antibacterial activity in vitro, Minimal Inhibitory Concentration
Format: cell-based
Source text: The compounds of the invention are new chemical compounds that are used as pharmacological agents and especially as broad spectrum antibacterial agents. They are active in vitro against strains of both gram-positive and gram-negative bacteria. The activity of the compounds is illustrated by the results shown in the table for certain of the preferred compounds.
Give just the numeric value; µg/mL need not be written.

> print(dat)
                                   compound                measured.parameter  measurement
1  CC(=O)NC(C)C(=O)Nc1ccc2[nH]cc(C(=O)NC(C(=O)NC3C(=O)N4C3SC(C)(C)C4C(=O)O)c3ccc(O)cc3)c(=O)c2c1 (stereo not shown)  Minimal Inhibitory Concentration          3.1
2  CC(=O)N1CCCC1C(=O)Nc1ccc2[nH]c(=O)c(C(=O)NC(C(=O)NC3C(=O)N4C3SC(C)(C)C4C(=O)O)c3ccc(O)cc3)cc2c1 (stereo not shown)  Minimal Inhibitory Concentration          3.1
3  CC(=O)N1CC(O)CC1C(=O)Nc1ccc2c(=O)c(C(=O)NC(C(=O)NC3C(=O)N4C3SC(C)(C)C4C(=O)O)c3ccc(O)cc3)c[nH]c2c1 (stereo not shown)  Minimal Inhibitory Concentration          6.3
4  CC1(C)SC2C(NC(=O)C(NC(=O)c3c[nH]c4ccc(NC(=O)C5CCC(=O)N5)cc4c3=O)c3ccc(O)cc3)C(=O)N2C1C(=O)O (stereo not shown)  Minimal Inhibitory Concentration          3.1
5  CC(=O)NC(C)C(=O)Nc1ccc2c(=O)c(C(=O)NC(C(=O)NC3C(=O)N4C3SC(C)(C)C4C(=O)O)c3ccc(O)cc3)c[nH]c2c1 (stereo not shown)  Minimal Inhibitory Concentration          3.1

Let's switch to this compound now.
Measured Minimal Inhibitory Concentration, CC(=O)N1CC(O)CC1C(=O)Nc1ccc2[nH]c(=O)c(C(=O)NC(C(=O)NC3C(=O)N4C3SC(C)(C)C4C(=O)O)c3ccc(O)cc3)cc2c1 (stereo not shown) : 6.3
